- method-summary: total clearance after intravenous administration to PXB-mice
- Type: in vivo, PXB‐mice (chimeric mice with humanized livers)
- protocol-conditions: intravenous cassette dose 0.1 mg/kg, N = 3, noncompartmental analysis
Could you please report measured CLt, PXB‐mice for the items listed next?
# value in mL/min/kg; strip the unit string

In: Using the record for CN1C(=O)CN=C(c2ccccc2)c2cc(Cl)ccc21 [Diazepam] , state its measured CLt, PXB‐mice.
Out: 42.147

In: Using the record for COc1ccc2cc([C@H](C)C(=O)O)ccc2c1 [(S)‐Naproxen] , state its measured CLt, PXB‐mice.
Out: 0.556

In: Using the record for CC(C)N(CCC(C(N)=O)(c1ccccc1)c1ccccn1)C(C)C (stereo not drawn) [Disopyramide] , state its measured CLt, PXB‐mice.
Out: 28.86

In: Using the record for COc1ccccc1Oc1c(NS(=O)(=O)c2ccc(C(C)(C)C)cc2)nc(-c2ncccn2)nc1OCCO [Bosentan] , state its measured CLt, PXB‐mice.
Out: 8.78

In: Using the record for Nc1ccc(S(=O)(=O)c2ccc(N)cc2)cc1 [Dapsone] , state its measured CLt, PXB‐mice.
Out: 4.40

In: Using the record for CN1C(C(=O)Nc2ccccn2)=C(O)c2sccc2S1(=O)=O [Tenoxicam] , state its measured CLt, PXB‐mice.
Out: 0.2878

In: Using the record for CC(C)(C)NC[C@H](O)COc1nsnc1N1CCOCC1 [Timolol] , state its measured CLt, PXB‐mice.
Out: 130.05

In: Using the record for CCCCNC(=O)NS(=O)(=O)c1ccc(C)cc1 [Tolbutamide] , state its measured CLt, PXB‐mice.
Out: 0.58

In: Using the record for CC(=O)C[C@@H](c1ccccc1)c1c(O)c2ccccc2oc1=O [(S)‐Warfarin] , state its measured CLt, PXB‐mice.
Out: 0.484

In: Using the record for CCNC(=O)OC1CCN(c2nncc3cc(OC)c(OC)cc23)CC1 [Carbazeran] , state its measured CLt, PXB‐mice.
Out: 99.67

In: Using the record for CNC(=C[N+](=O)[O-])NCCSCc1ccc(CN(C)C)o1 [Ranitidine] , state its measured CLt, PXB‐mice.
Out: 131.02

In: Using the record for CN[C@@H]1C[C@H]2O[C@@](C)([C@@H]1OC)n1c3ccccc3c3c4c(c5c6ccccc6n2c5c31)C(=O)N[C@H]4O [UCN−01, 7‐hydroxystaurosporine] , state its measured CLt, PXB‐mice.
Out: 0.0369

In: Using the record for COc1cc2nc(N3CCN(C(=O)C4COc5ccccc5O4)CC3)nc(N)c2cc1OC (stereo not drawn) [Doxazosin] , state its measured CLt, PXB‐mice.
Out: 34.245

In: Using the record for Cc1cc(=O)n(-c2ccccc2)n1C [Antipyrine] , state its measured CLt, PXB‐mice.
Out: 4.60

In: Using the record for Cn1c(=O)c2[nH]cnc2n(C)c1=O [Theophylline] , state its measured CLt, PXB‐mice.
Out: 4.70

Data provenance: paper PMC8742647
